# study.target: Bacillus anthracis lethal factor (Bacillus anthracis)
# Sequence (P15917 34-809 limits assumed): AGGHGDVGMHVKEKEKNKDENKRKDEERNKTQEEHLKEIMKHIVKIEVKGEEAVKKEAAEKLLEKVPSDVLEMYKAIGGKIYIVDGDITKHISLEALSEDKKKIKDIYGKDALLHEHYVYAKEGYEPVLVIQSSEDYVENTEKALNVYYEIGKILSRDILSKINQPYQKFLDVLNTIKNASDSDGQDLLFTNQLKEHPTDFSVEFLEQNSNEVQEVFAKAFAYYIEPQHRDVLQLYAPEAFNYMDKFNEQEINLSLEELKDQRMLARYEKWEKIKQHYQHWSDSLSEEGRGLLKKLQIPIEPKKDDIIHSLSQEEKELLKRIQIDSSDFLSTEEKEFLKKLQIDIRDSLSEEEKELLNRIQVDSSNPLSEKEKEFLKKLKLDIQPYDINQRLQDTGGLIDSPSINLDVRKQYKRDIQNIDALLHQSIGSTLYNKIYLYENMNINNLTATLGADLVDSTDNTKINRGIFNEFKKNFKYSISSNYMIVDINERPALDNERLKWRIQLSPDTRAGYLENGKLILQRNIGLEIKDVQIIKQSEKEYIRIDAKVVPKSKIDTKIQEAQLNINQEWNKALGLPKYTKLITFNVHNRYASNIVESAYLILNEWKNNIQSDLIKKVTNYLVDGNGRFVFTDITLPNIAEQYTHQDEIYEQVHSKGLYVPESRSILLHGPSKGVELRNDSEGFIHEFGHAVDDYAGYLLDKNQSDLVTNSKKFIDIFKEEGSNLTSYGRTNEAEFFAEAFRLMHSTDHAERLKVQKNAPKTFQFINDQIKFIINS
# measurement.notes: biochemical
# Type: biochemical
reported.endpoint: LF inhibitory activity (in words)

In [3]: df
Out[3]:
                                   molecule                              study_target  experimental_value
0  COc1ccc(Cl)cc1CCC(=O)Nc1ccc2nc(C)cc(N)c2c1 [Compound 18ff]  Bacillus anthracis lethal factor (Bacillus anthracis)            inactive
1  Cc1cc(N)c2cc(NC(=O)CCc3ccccc3OC(=O)c3ccccc3)ccc2n1 [Compound 18y]  Bacillus anthracis lethal factor (Bacillus anthracis)            inactive
2  Cc1cc(N)c2cc(NC(=O)CCc3ccccc3C)ccc2n1 [Compound 18aa]  Bacillus anthracis lethal factor (Bacillus anthracis)            inactive
3  COc1ccncc1CCC(=O)Nc1ccc2nc(C)cc(N)c2c1 [Compound 18oo]  Bacillus anthracis lethal factor (Bacillus anthracis)  devoid of activity
4  Cc1cc(N)c2cc(NC(=O)CCc3ccccc3Cl)ccc2n1 [Compound 18z]  Bacillus anthracis lethal factor (Bacillus anthracis)            inactive
5  COc1ccsc1CCC(=O)Nc1ccc2nc(C)cc(N)c2c1 [Compound 18pp]  Bacillus anthracis lethal factor (Bacillus anthracis)  devoid of activity
6  COc1ccc(Br)cc1CCC(=O)Nc1ccc2nc(C)cc(N)c2c1 [Compound 18ee]  Bacillus anthracis lethal factor (Bacillus anthracis)            inactive
